Each recorded value in this set is attributed to ChEMBL document CHEMBL4616660.

System: Saccharomyces cerevisiae
Assay: Inhibition of Saccharomyces cerevisiae alpha-glucosidase at 100 uM using p-nitrophenyl alpha-Dglucopyranoside as substrate preincubated for 15 mins followed by substrate addition and measured after 20 mins relative to control
OUTCOME MEASURE: inhibition (%)

C=C1CC[C@]2(C(=O)O)CC[C@]3(C)C(=CC[C@@H]4[C@@]5(C)C[C@@H](O)[C@H](O)[C@@](C)(COC(=O)/C=C/c6ccc(O)cc6)[C@@H]5CC[C@]43C)[C@@H]2[C@H]1C; 59.9
C[C@H]1[C@H](C)CC[C@]2(C(=O)O)CC[C@]3(C)C(=CC[C@@H]4[C@@]5(C)C[C@@H](OC(=O)/C=C/c6ccc(O)cc6)[C@H](O)[C@@](C)(CO)[C@@H]5CC[C@]43C)[C@H]12; 67.2

[P] C=C1CC[C@]2(C(=O)O)CC[C@]3(C)C(=CC[C@@H]4[C@@]5(C)C[C@@H](O)[C@@H](O)[C@@](C)(CO)[C@@H]5CC[C@]43C)[C@@H]2[C@H]1C
[Q] C=C1CC[C@]2(C(=O)O)CC[C@]3(C)C(=CC[C@@H]4[C@@]5(C)C[C@@H](O)[C@H](O)[C@@](C)(CO)[C@@H]5CC[C@]43C)[C@@H]2[C@H]1C
Determine, for P and Q , which has the greater value of inhibition. Reply with the label of the item you choose. Q

[1] C=C1CC[C@]2(C(=O)O)CC[C@]3(C)C(=CC[C@@H]4[C@@]5(C)C[C@@H](OC(=O)/C=C/c6ccc(O)cc6)[C@H](O)[C@@](C)(CO)[C@@H]5CC[C@]43C)[C@@H]2[C@H]1C
[2] C=C1C=C[C@]2(C(=O)O)CC[C@]3(C)C(=CC[C@@H]4[C@@]5(C)C[C@@H](O)[C@@H](O)[C@@](C)(CO)[C@@H]5CC[C@]43C)[C@@H]2[C@H]1C
Determine, for 1 and 2 , which has the greater value of inhibition. Reply with the label of the item you choose. 1
(1: 70.1%, 2: 3%)
